Recorded MDR1-MDCK efflux ratio by entry

Example results:
CCN(c1ccc(C(C)C)cc1)S(=O)(=O)c1ccccc1    0.516
N#CN1CCC[C@H](n2nc(-c3ccc(Oc4ccc(F)cc4F)cc3)c(C(N)=O)c2N)C1    33
Cc1cc(F)ccc1S(=O)(=O)N1CCCc2cnc(N3CCOCC3)nc21    0.723
C=CCNc1ncc(-c2cnccn2)c(C2CC2)n1    0.531
CCc1cc(=O)[nH]c(SCCN2CCCCC2)n1    3.43
CN(Cc1nc2c(s1)CCCC2)c1cnccn1    0.576

Now let's try a different one.
Q: Using the record for Cc1cccc(C)c1OCCn1nnnc1C , report its MDR1-MDCK efflux ratio.
A: 0.657

----------
// map intrinsic clearance, human liver microsomes to label using low bracket = under 10 mL/min/kg, middle bracket = from 10 mL/min/kg up to 70 mL/min/kg, high bracket = 70 mL/min/kg and over

Past entries and their recorded results:
Nc1ccc2c(c1)ncn2-c1ccccc1    low bracket
COc1ccc(N)c(OCc2ccccc2)c1    high bracket
CCC(C)(C)c1ccc(Oc2ccc(NC3=NN(c4ccccc4)C(=O)C3)cc2)cc1    low bracket
CC(C)CNc1nnc(SCc2ccncc2)s1    middle bracket
CCOc1ccc(CC(=O)NCCn2cccnc2=O)cc1    low bracket

Q: State the class of the compound shown: O=C(O)c1ccccc1-c1ccc(CN2CCCCC2)cc1
A: low bracket

Q: What about this compound? O=C(NC1CCNCC1)c1ccc2cn[nH]c2c1
A: middle bracket

Q: What about this compound? COc1cc2c(c(OC)c1OC)CCNC(=O)C2
A: low bracket

Q: What about this compound? c1cc(CC2CCNCC2)c2cccnc2c1
A: low bracket

Q: What about this compound? COc1cc(OC)cc(-c2c(C)ncnc2OC)c1
A: low bracket

Q: What about this compound? CCCn1cnnc1CN(C)Cc1cc(C(C)C)on1
A: low bracket

----------
Tick Met if intrinsic clearance, human liver microsomes is 70 mL/min/kg or greater. Tick Not met if intrinsic clearance, human liver microsomes is less than 70 mL/min/kg.

Cn1cc(C#N)cc1-c1nc(C2CC2)nn1CCc1ccccc1    Met
Cn1cnnc1-c1cccc(NS(=O)(=O)c2ccc3c(c2)OCCCO3)c1    Not met
CC#CC(=O)N1CCC[C@@H]1c1nc(-c2ccc(C(=O)Nc3ccccn3)cc2)c2c(N)nccn12    Met
Cc1noc(C)c1CCC(=O)Nc1cccnc1    Not met
CCn1nccc1-c1cc(C)nc(N2CCCC2)n1    Met
Cc1ccccc1-n1nc(C(C)(C)C)cc1N    Not met

Q: Identify whether the reported intrinsic clearance, human liver microsomes of the following compound is 70 mL/min/kg or greater: O=C(CCNC(=O)c1ccc(OC(F)(F)F)cc1)N[C@@H]1CCCc2ccccc21
A: Met

Q: What about this compound? CNc1nc(Nc2cnn([C@H]3CCN(C4COC4)C[C@@H]3F)c2Cl)ncc1C(F)(F)F
A: Not met

Q: What about this compound? CCONC(=O)c1cncn1-c1ccc(F)cc1
A: Not met

Q: What about this compound? O=c1c2oc3ccccc3c2ncn1Cc1ccc(Cl)cc1
A: Met

----------
Recorded intrinsic clearance, rat liver microsomes by entry
All answers are understood in L/h/kg, so give the number only.

Example results:
COCC(=O)Nc1ccc(NC(=O)Cc2cc(C)ccc2C)cc1    4.59
CSCc1c(C(=O)NC(C)C)oc2ccccc12    22
CSc1ccccc1S(=O)(=O)NC1CCC(CN(C)C)CC1 (stereo unspecified)    26.4

Q: Using the record for Cc1nc(C2CCN(Cc3ccc(C(F)(F)F)cc3)CC2)n[nH]1 , report its intrinsic clearance, rat liver microsomes.
A: 0.843

Q: What about this molecule? COc1cc2c(cc1OC)[C@@H]1CC(=O)[C@@H](CC(C)C)CN1CC2
A: 19.8

Q: What about this molecule? Cc1nnc2ccc(N3CCC4(CCCCC4)C3)nn12
A: 36

Recorded values, source the Biogen ADME set (Fang et al. 2023).
